# Tested on: SN12C renal
# protocol summary: NCI tumour cell line growth inhibition, 48 h
readout: TGI (nM)
Report the figure in nM without appending any unit label.

Reference set, count: 2
CCC[CH2][Sn]([CH2]CCC)([O]C(=O)C1CCC(=O)N1)[O]C(=O)C1CCC(=O)N1 (centres undefined): 1200
CC1=C[S+](c2ccccc2)c2cccc3cc4ccccc4c1c23 (centres undefined): 1250

Now for the molecule whose TGI we want.
Record for `O=C1C(Cl)=C(Nc2cccc(O)c2)C(=O)N1c1ccccc1Cl` under target or system SN12C renal: TGI reported as 46400

---

# Tested on: OVCAR-8 ovarian
# protocol summary: NCI tumour cell line growth inhibition, 48 h
Entries and their TGI values follow.

The examples below pair each entry with its known result.
Cn1ncnc1CCc1ccccc1: > 100 µM
O=c1cc(-c2ccccc2)oc2cc(OCCSCCCCCCCCCCSCCOc3ccc4c(=O)cc(-c5ccccc5)oc4c3)ccc12: > 100 µM
CCC[CH2][Sn]([CH2]CCC)([O]C(=O)C1CCC(=O)N1)[O]C(=O)C1CCC(=O)N1 (stereo not given): 1.01 µM

TGI for N#CC1(C=O)c2ccccc2C=CN1C(=O)c1ccccc1 (stereo not given) is > 100 µM

The compound listed as `CCOC(=O)/C=C1\c2ccccc2C(=O)N1CC(=O)OCC` has a reported TGI of > 100 µM
